LD50 for assorted compounds
experiment: Acute toxicity in mice after intraperitoneal administration.; settings: mouse, in vivo, ip, LD50
Write the answer as a number in mg/kg, unit excluded.

Query: Entry `Cc1cc(-c2ccsc2)nnc1NCCN1CCOCC1` : reported LD50 = ?
Response: 72

* * *

test: Acute toxicity in mice after intraperitoneal administration.; details: mouse, in vivo, ip, LD50
# note: boundary value 30 mg/kg maps to NOT MET; LD50 below it maps to MET

Query: Record Br.Br.Cc1cc(-c2ccc(O)cc2)nnc1NCCN1CCOCC1 [MOXIRAPRINE DIBROMIDE] : is its LD50 strictly below 30 mg/kg?
Response: NOT MET

Query: Record `Br.Br.Cc1cc(-c2ccccc2O)nnc1NCCN1CCOCC1` : is its LD50 strictly below 30 mg/kg?
Response: NOT MET

* * *

assay: Acute toxicity in mice after intraperitoneal administration.; conditions: mouse, in vivo, ip, LD50
LD50 for assorted molecules
Write the answer as a number in mg/kg, unit excluded.

Worked cases, LD50 given:
- compound structure string: "Cc1cc(-c2ccccc2)nnc1NCCCCN"
  readout value: 300
- compound structure string: "Cc1cc(-c2ccc(N)cc2)nnc1NCCN1CCOCC1"
  readout value: 15
- compound structure string: "CCN(CC)CCNc1nnc(-c2ccccc2)cc1C"
  readout value: 80

Query: Entry `Cc1cc(-c2ccccc2Cl)nnc1NCCN1CCOCC1` : reported LD50 = ?
Response: 7

* * *

test: Acute toxicity in mice after intraperitoneal administration.; conditions: mouse, in vivo, ip, LD50
LD50 for assorted molecules
Write the answer as a number in mg/kg, unit excluded.

Worked cases, LD50 given:
- compound structure string: "CCc1cc(-c2ccccc2)nnc1NCCN1CCOCC1"
  LD50 [mg/kg]: 31
- compound structure string: "Cc1cc(-c2ccccc2)nnc1NCCCN"
  LD50 [mg/kg]: 300

From here, focus on the item given below.
Query: Entry `Cc1cc(-c2ccc(F)cc2)nnc1NCCN1CCOCC1` : reported LD50 = ?
Response: 45
